Target Or System: human GR (Homo sapiens, UniProt P04150)
Sequence (P04150 1-777): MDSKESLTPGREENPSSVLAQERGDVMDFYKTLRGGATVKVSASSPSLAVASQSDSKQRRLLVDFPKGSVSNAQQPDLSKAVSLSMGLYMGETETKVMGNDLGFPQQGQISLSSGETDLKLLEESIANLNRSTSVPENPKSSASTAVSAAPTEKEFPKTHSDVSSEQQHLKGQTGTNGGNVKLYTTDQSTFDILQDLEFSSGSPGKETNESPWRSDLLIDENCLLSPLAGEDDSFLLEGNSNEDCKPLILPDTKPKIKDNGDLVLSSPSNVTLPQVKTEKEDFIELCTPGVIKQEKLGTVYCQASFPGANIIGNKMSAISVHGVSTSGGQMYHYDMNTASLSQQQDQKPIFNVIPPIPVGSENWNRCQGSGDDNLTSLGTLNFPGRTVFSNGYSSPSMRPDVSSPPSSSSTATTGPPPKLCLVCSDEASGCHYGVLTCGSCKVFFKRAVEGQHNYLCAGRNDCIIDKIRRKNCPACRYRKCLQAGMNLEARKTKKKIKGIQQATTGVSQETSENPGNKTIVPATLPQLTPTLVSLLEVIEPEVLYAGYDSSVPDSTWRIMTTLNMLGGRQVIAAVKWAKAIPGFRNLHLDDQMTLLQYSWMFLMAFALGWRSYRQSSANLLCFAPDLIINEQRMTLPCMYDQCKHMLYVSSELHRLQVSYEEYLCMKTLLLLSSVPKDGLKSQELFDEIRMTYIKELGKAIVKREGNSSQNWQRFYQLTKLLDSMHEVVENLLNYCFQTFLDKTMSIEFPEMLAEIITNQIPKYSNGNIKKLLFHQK
Assay Text: Transrepression Assay (GITAR), TNFα-β-lactamase reporter in U937 cells
Format: cell-based
Set-up: U937 cells contain an endogenous glucocorticoid receptor (GR); endogenous in cells; host or cells: U937 cells stably transfected with the TNF-alpha promoter/beta-lactamase reporter
Run Conditions: U-937, U937 cells; maximum activity; read-out: Transrepression U937 Cells GITAR Emax
Endpoint: Emax (%)

[1] C[C@H](O)CN(C[C@H]1CCC2=Cc3c(cnn3-c3ccc(F)cc3)C[C@@]21C)S(=O)(=O)Cc1ccccc1C(N)=O [Example 185]
[2] C[C@]12Cc3cnn(-c4ccc(F)cc4)c3C=C1CC[C@@H]2CN(CC#N)S(=O)(=O)c1ccc(Oc2cccc(Cl)c2C#N)cc1 [Example 38]
Would you let me know which has the greater Emax value, 1 or 2 ? Refer to your chosen item by its label in the answer.
1

[A] C[C@]12Cc3cnn(-c4ccc(F)cc4)c3C=C1CC[C@@H]2CN(CC#N)S(=O)(=O)c1ccc(F)cc1F [Example 51]
[B] C[C@]12Cc3cnn(-c4ccc(F)cc4)c3C=C1CC[C@@H]2CN(CCO)S(=O)(=O)c1cccc(Cl)c1Cl [Example 61]
When their Emax values are compared, which is larger, A or B ? Answer by quoting the chosen item's label.
A

---

Target Or System: human GR (Homo sapiens)
Assay Text: Transrepression Assay (GITAR), TNFα-β-lactamase reporter in U937 cells
Format: cell-based
Parameters: U937 cells contain an endogenous glucocorticoid receptor (GR); endogenous in cells; host or cells: U937 cells stably transfected with the TNF-alpha promoter/beta-lactamase reporter
Run Conditions: U937 cells; inflection point; read-out: Transrepression U937 Cells GITAR IP
pEC50: −log10 of the molar value.
Endpoint: pEC50

pEC50 reading for Cc1oncc1S(=O)(=O)N(CCO)C[C@H]1CCC2=Cc3c(cnn3-c3ccc(F)cc3)C[C@@]21C : 6.19

[I] C[C@]12Cc3cnn(-c4ccc(F)cc4)c3C=C1CC[C@@H]2CNS(=O)(=O)Cc1cccnc1
[II] C[C@]12Cc3cnn(-c4ccc(F)cc4)c3C=C1CC[C@@H]2CN(CCc1ccccc1Cl)S(=O)(=O)c1ccccc1F
Endpoint returns the identifier whose pEC50 is numerically larger, either I or II . Answer by stating the label of the chosen item.
II

[P] CC([C@H]1CCC2=Cc3c(cnn3-c3ccc(F)cc3)C[C@@]21C)N(CCc1ccccn1)S(=O)(=O)Cc1cccnc1 (stereo partly shown)
[Q] C[C@]12Cc3cnn(-c4ccc(F)cc4)c3C=C1CC[C@@H]2CN(CC#N)S(=O)(=O)c1ccc(-c2ccccc2)cc1
Could you point out whether the larger pEC50 belongs to P or to Q ? I would appreciate it if you answered with the label of your choice.
Q

[a] C[C@]12Cc3cnn(-c4ccc(F)cc4)c3C=C1CC[C@@H]2CN(CC(O)C(F)F)S(=O)(=O)CC(F)(F)F (stereo partly shown)
[b] C[C@H](O)CN(C[C@H]1CCC2=Cc3c(cnn3-c3ccc(F)cc3)C[C@@]21C)S(=O)(=O)Cc1ccccc1C(N)=O
API: POST /compare with a and b ; response names the item with higher pEC50. # reply format: chosen label
a
